target or test system: T1, IFN-αF (human, UniProt P01568 24-189)
T1 construct: Recombinant, HEK293; also called IFN-α21
T1 chain: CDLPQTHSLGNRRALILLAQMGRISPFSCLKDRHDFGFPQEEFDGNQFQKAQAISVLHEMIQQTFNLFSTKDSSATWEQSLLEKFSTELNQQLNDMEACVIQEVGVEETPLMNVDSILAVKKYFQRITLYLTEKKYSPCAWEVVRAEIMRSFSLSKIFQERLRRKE
measurement description: ProteOn SPR, cell supernatant;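 further: each binding measurement used just a single antigen concentration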
Consider the following binders; for each one, report its pKd.
The scale used: pKd is minus the common logarithm of the concentration in molar units.

Which pKd value belongs to IFWM3380 (antibody, IgG1, V domains shown, mAb; IgG1/kappa said of the parent and of selected mAbs; also called IFWB3115) VH: EVQLVQSGAEVKKPGESLKISCKGSGYSFTSYWIGWVRQMPGKGLEWMGIIDPSDSDTRYSPSFQGQVTISADKSISTAYLQWSSLKASDTAMYYCARHPGLAWAPDFDYWGQGTLVTVSS VL: DIQMTQSPSSLSASVGDRVTITCRASQSINRFLNWYQQKPGKAPKLLIYAASSLQSGVPSRFSGSGSGTDFTLTISSLQPEDFATYYCQQAIDLPFTFGQGTKVEIK ?
10.49

Then this binder: IFWM3396 (antibody, IgG1, V domains shown, mAb; IgG1/kappa said of the parent and of selected mAbs; also called IFWB3131) VH: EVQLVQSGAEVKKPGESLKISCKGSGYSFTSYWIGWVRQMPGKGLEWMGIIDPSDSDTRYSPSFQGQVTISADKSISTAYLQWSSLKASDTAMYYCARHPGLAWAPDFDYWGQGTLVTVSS VL: DIQMTQSPSSLSASVGDRVTITCRASQSISEYLNWYQQKPGKAPKLLIYFASSLQSGVPSRFSGSGSGTDFTLTISSLQPEDFATYYCQQSHSLPITFGQGTKVEIK
11.15

# credit: patent US20150368338A1
